Origin of the recorded values: patent US20250235545A1

# test: Tumor homogenate activation efficiency, colorectal cancer tissue (Example 37)
# Assay type: in vitro ADME
# settings: pH 5.0, 37° C., 2 h; Table 10
Where a SMILES comes first, the peptide text is derived from it. The star is where a group is joined. Belotecan = CC[C@@]1(O)C(=O)OCc2c1cc1n(c2=O)Cc2c-1nc1ccccc1c2CCN(C(C)C)*; X1 = CC[C@@]1(O)C(=O)OCc2c1cc1n(c2=O)Cc2c-1nc1ccccc1c2CCN(C1CCC1)*; X4 = CCCN(CCc1c2c(nc3ccccc13)-c1cc3c(c(=O)n1C2)COC(=O)[C@]3(O)CC)*; X3 = CC[C@@]1(O)C(=O)OCc2c1cc1n(c2=O)Cc2c-1nc1ccccc1c2CCN(C1CC1)*; X7 = CC[C@@]1(O)C(=O)OCc2c1cc1n(c2=O)Cc2c-1nc1ccccc1c2CCN(C)*; Propanoyl(3-maleimido) = O=C1C=CC(=O)N1CCC(=O)*; PEG6 = NCCOCCOCCOCCOCCOCCOCCC(=O)O
readout-kind: Percentage of release efficiency (%) Colorectal cancer tissue (colo320)
The reply should contain only the number, in %.

{"compound": "CC[C@@]1(O)C(=O)OCc2c1cc1n(c2=O)Cc2c-1nc1ccccc1c2CCN(C(=O)[C@H](CC(C)C)NC(=O)[C@H](CC(N)=O)NC(=O)[C@H](C)NC(=O)[C@H](C)NC(=O)CCOCCOCCOCCOCCOCCOCCNC(=O)CCN1C(=O)C=CC1=O)C1CCC1 [MI-6PEG-AANL-D7] ({Propanoyl(3-maleimido)-PEG6}-AANL-X1)", "u": "%", "observed-result": 76.4}
{"compound": "CC[C@@]1(O)C(=O)OCc2c1cc1n(c2=O)Cc2c-1nc1ccccc1c2CCN(C(=O)[C@H](CC(C)C)NC(=O)[C@H](CC(N)=O)NC(=O)[C@H](C)NC(=O)[C@H](C)NC(=O)CCOCCOCCOCCOCCOCCOCCNC(=O)CCN1C(=O)C=CC1=O)C(C)C [MI-6PEG-AANL-Belotecan] ({Propanoyl(3-maleimido)-PEG6}-AANL-Belotecan)", "u": "%", "observed-result": 75.6}
{"compound": "CC[C@@]1(O)C(=O)OCc2c1cc1n(c2=O)Cc2c-1nc1ccccc1c2CCN(C(=O)[C@H](CC(C)C)NC(=O)[C@H](CC(N)=O)NC(=O)[C@H](C)NC(=O)[C@H](C)NC(=O)CCOCCOCCOCCOCCOCCOCCNC(=O)CCN1C(=O)C=CC1=O)C1CC1 [MI-6PEG-AANL-D6] ({Propanoyl(3-maleimido)-PEG6}-AANL-X3)", "u": "%", "observed-result": 73.5}
{"compound": "CCCN(CCc1c2c(nc3ccccc13)-c1cc3c(c(=O)n1C2)COC(=O)[C@]3(O)CC)C(=O)[C@H](CC(C)C)NC(=O)[C@H](CC(N)=O)NC(=O)[C@H](C)NC(=O)[C@H](C)NC(=O)CCOCCOCCOCCOCCOCCOCCNC(=O)CCN1C(=O)C=CC1=O [MI-6PEG-AANL-D3] ({Propanoyl(3-maleimido)-PEG6}-AANL-X4)", "u": "%", "observed-result": 71.6}

Task: Output Percentage of release efficiency (%) Colorectal cancer tissue (colo320) of CC[C@@]1(O)C(=O)OCc2c1cc1n(c2=O)Cc2c-1nc1ccccc1c2CCN(C)C(=O)[C@H](CC(C)C)NC(=O)[C@H](CC(N)=O)NC(=O)[C@H](C)NC(=O)[C@H](C)NC(=O)CCOCCOCCOCCOCCOCCOCCNC(=O)CCN1C(=O)C=CC1=O [MI-6PEG-AANL-D1] ({Propanoyl(3-maleimido)-PEG6}-AANL-X7)
Result: 72.4
